Target: S1P1 (Homo sapiens)
Sequence (P21453 whole entry, species assumed): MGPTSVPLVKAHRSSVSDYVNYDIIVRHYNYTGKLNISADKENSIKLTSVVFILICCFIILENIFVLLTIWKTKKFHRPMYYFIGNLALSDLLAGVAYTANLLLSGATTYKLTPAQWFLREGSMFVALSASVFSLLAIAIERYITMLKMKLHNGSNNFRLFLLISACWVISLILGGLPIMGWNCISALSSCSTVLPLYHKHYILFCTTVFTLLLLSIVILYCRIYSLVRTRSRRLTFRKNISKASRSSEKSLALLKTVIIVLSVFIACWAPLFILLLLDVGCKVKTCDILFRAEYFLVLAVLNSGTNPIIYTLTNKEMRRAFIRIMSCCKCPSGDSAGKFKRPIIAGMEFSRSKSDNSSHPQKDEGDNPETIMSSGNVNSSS
Assay: Receptor binding assay, [33P]sphingosine 1-phosphate competition (SPA), S1P1
Conditions: 384 well-plate; read-out: S1P1 binding Ki (M) (384 well-plate)
EXPERIMENTAL_ENDPOINT: Ki (M)

Reference set, count: 3
CN(CC(=O)O)Cc1cc(F)cc(-c2noc(-c3ccc(-c4ccccc4C(F)(F)F)c(Cl)c3)n2)c1 [Example 136]    4.27e-09
Cc1cc(-c2nc(-c3ccc(CN(C)CC(=O)O)cc3Cl)no2)ccc1-c1ccccc1C(F)(F)F [Example 153]    3.32e-09
CN(CC(=O)O)Cc1ccc(-c2noc(-c3ccc(-c4ccccc4C(F)(F)F)c(Cl)c3)n2)cc1 [Example 135]    2.63e-09

I = Cc1cc(-c2nc(-c3cc(F)cc(CN(C)CC(=O)O)c3)no2)ccc1-c1ccccc1C(F)(F)F [Example 104]
II = Cc1cc(-c2nc(-c3cccc(CN(C)CC(=O)O)c3)no2)ccc1-c1ccccc1C(F)(F)F [Example 101]
Could you determine which record has the numerically smaller Ki? Candidates: I and II State the label of the item chosen. II
(II: 5.63e-09 M, I: 8.98e-09 M)

A = COCc1cc(-c2nc(-c3cccc(CN(C)CC(=O)O)c3)no2)ccc1-c1ccc(F)cc1C(F)(F)F [Example 50]
B = Cc1cc(-c2nc(-c3ccc(CN(C)CC(=O)O)c(F)c3)no2)ccc1-c1ccccc1C(F)(F)F [Example 123]
I'd appreciate it if you could identify which of A and B has the greater Ki. State the label of the item chosen. A

Source: patent US8802704B2
